In this section, each of the compounds is paired with its reported residual activity.
- study target: BRAF (human)
- method: radiometric filter-binding kinase assay, Kinase HotSpot
- condition context: compound 0.5 µM; ATP 10 µM
Write the answer as a number in %, unit excluded.

Request: Which residual activity value belongs to `Nc1ncnc2c1cnn2-c1ccccc1` ?
Response: 93.6

Request: Give its residual activity value. Item: `N#CCCc1ccc2c(c1)-c1[nH]c3ccc([N+](=O)[O-])cc3c1CC(=O)N2`
Response: 99.3

Request: Can you share its residual activity? I mean this compound: `N#C/C(=C1/Nc2ccccc2S1)c1ccnc(NCCc2cccnc2)n1`
Response: 96.6

Request: Entry `O=S(=O)(NCCNC/C=C/c1ccc(Br)cc1)c1cccc2cnccc12` : reported residual activity = ?
Response: 99.8

Request: Which residual activity is listed for `COc1cc2c(Nc3ccc(Br)cc3F)ncnc2cc1OCC1CCN(C)CC1` ?
Response: 94.8

Request: Any idea what residual activity was measured for `O=c1cc(N2CCOCC2)oc2c(-c3ccccc3)cccc12` ?
Response: 95.9

Request: residual activity lookup needed for `N#Cc1c(NC(=O)c2cccc3ccccc23)sc2c1CCCC2` , thanks.
Response: 95.2

Request: // returns reported residual activity for input `CCc1nc(-c2ccc(OC)cc2)[nH]c1-c1ccncc1`
Response: 102

Request: Consider the compound `O=C1NC(=O)c2cc(Nc3ccc(F)cc3)c(Nc3ccc(F)cc3)cc21` and give its measured residual activity.
Response: 94.2

Request: What value of residual activity has been reported for the following compound? `O=C(O)c1ccc2c3c1cccc3c(=O)n1c3ccccc3nc21`
Response: 95.1
